assayInfo: Pharmacokinetics after intraperitoneal injection
Type: in vivo
runConditions: male, Sprague-Dawley, rat, plasma; rats, single ip; PTP@HA 100.0 mg·kg^–1 PTP, PTX solution 12.0 mg·kg^–1
quantityName: MRT (h)

inputSmiles | quantityName | measuredValue
CC(=O)O[C@H]1C(=O)[C@@]2(C)[C@H]([C@H](OC(=O)c3ccccc3)[C@]3(O)C[C@H](OC(=O)[C@H](O)[C@@H](NC(=O)c4ccccc4)c4ccccc4)C(C)=C1C3(C)C)[C@]1(OC(C)=O)CO[C@@H]1C[C@@H]2O | MRT | 4.4

----------
assayInfo: Pharmacokinetics after intraperitoneal injection
Format: in vivo
runConditions: male, Sprague-Dawley, rat, plasma; rats, single ip; PTP@HA 100.0 mg·kg^–1 PTP, PTX solution 12.0 mg·kg^–1

molecule | half-life, h
CC(=O)O[C@H]1C(=O)[C@@]2(C)[C@H]([C@H](OC(=O)c3ccccc3)[C@]3(O)C[C@H](OC(=O)[C@H](O)[C@@H](NC(=O)c4ccccc4)c4ccccc4)C(C)=C1C3(C)C)[C@]1(OC(C)=O)CO[C@@H]1C[C@@H]2O [PTX, Paclitaxel] | 3.2

All values here come from paper PMC12424289.
